Type: in vivo, human
Conditions: human, plasma, oral
quantity.measured: Vd/F

[
  {
    "compound.smiles": "Cc1cc(C)c2c(c1)[C@@H](N(Cc1cc(C(F)(F)F)cc(C(F)(F)F)c1)c1nnn(C)n1)CCCN2C[C@H]1CC[C@H](C(=O)O)CC1",
    "measured": "228 L"
  }
]
